# reported pIC50; entries follow
# PROCEDURE_SUMMARY: Inhibition of N-type calcium channel alpha1B/alpha2delta-1/beta1b by patch clamp analysis
A value of pIC50 is the negative decimal logarithm of a concentration given in moles per litre.

STRUCTURE_SMILES_STRING | pIC50
COc1ccccc1-n1nc(C2CCN(S(=O)(=O)C(C)C)CC2)cc1-c1ccc(Cl)cc1 | 7.10

// switching to the query compound
Qu. State its pIC50 for this compound: COc1ccccc1-n1nc(C2CCN(S(C)(=O)=O)CC2)cc1-c1ccc(Cl)cc1
Ans. 6.70

---

# PROCEDURE_SUMMARY: Metabolic stability in human liver microsomes assessed as compound remaining after 10 mins
# Assay type: ADME, Microsome
# MEASUREMENT_CONTEXT: liver microsomes, read-out: Stability
PARAMETER: remaining at 10 min (%)
Please reply with the bare figure in % and do not write the unit itself.

A selection of reference data follows.
STRUCTURE_SMILES_STRING | RESULT_UNITS | remaining at 10 min
CC(C)Oc1ccccc1-n1nc(C2CCN(S(C)(=O)=O)CC2)cc1-c1ccc(Cl)cc1 | % | 18
COc1ccccc1-n1nc(C2CCN(C(C)=O)CC2)cc1-c1ccc(Cl)cc1 | % | 59
COc1ccccc1-n1nc(C2CCN(S(=O)(=O)C(F)(F)F)CC2)cc1-c1ccc(Cl)cc1 | % | 98
COc1ccccc1-n1nc(C2CCN(S(C)(=O)=O)CC2)cc1-c1ccc(Cl)cc1 | % | 86
COc1ccccc1-n1nc(C2CCN(S(=O)(=O)C(C)C)CC2)cc1-c1ccc(Cl)cc1 | % | 100

// switching to the query compound
Qu. State its remaining at 10 min for this compound: COc1ccccc1-n1nc(C2CCN(S(=O)(=O)CC(F)(F)F)CC2)cc1-c1ccc(Cl)cc1
Ans. 100

src = ChEMBL document CHEMBL2029231
